Experiment: Plasma pharmacokinetics and bioavailability after intravenous and oral administration
Assay type: in vivo, cynomolgus monkeys
Details: both sexes, cynomolgus monkey, plasma; Monkey, 3 mg/kg po; read-out: Vss/F
Method: Cynomolgus monkeys (3/sex/group: weight 3-5 kg, age 5-6 years old) were obtained from SuZhou XiShan ZhongKe Laboratory Animals (Shanghai, China). Animals were housed for a 7-day acclimation period before study. […] The compound of Formula I was intravenously or orally administered to cynomolgus monkeys fasted overnight. […] The concentrations of the compound of Formula I in plasma were determined by the validated liquid chromatography-tandem mass spectrometry method. […]
Recorded Endpoint: Vd/F (L/kg)

{"columns": ["Item Smiles", "Recorded Endpoint", "Observed"],
 "data": [
  ["COC(=O)NCCCn1nc([C@@H](C)N(C(=O)[C@H]2CNCCO2)C2CC2)c2ccc(C)nc21", "Vd/F", 104]
]}
